Values compiled from paper PMC7939381.

Biological target: T1, 14-3-3ε, full length, N-terminally His6-tagged (human, UniProt P62258 1-255)
T1 chain: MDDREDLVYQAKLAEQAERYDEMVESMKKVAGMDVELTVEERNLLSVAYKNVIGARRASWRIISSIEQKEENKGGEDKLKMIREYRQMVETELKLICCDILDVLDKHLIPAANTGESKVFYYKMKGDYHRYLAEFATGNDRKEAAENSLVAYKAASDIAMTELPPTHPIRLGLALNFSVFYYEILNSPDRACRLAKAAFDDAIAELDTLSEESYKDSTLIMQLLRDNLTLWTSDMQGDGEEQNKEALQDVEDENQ
Experiment: FP
Primed or numbered codes have the meaning given here. Where no end group is shown, it is not given here. [ ]: non-standard residue; d: D form. The star is where a group is joined. PEG2′ = short PEG linker placed between the N-terminal FITC label and the peptide; FITC = O=C1OC2(c3ccc(O)cc3Oc3cc(O)ccc32)c2ccc(NC(=S)*)cc21; pS = N[C@@H](COP(=O)(O)O)C(=O)O

Binder | Kd
{FITC-PEG2′}-NKNAN[pS]SPV [FITC-labeled peptide 1, APN 38–46 pSer43] | 1100 nM
